experiment: Tanguay_ZF_120hpf_BRAI_legacy: (Legacy) Oregon State University Tanguay Lab 120 Hour Post-fertilization zebrafish Assay for Brain Malformation (AID 2283641)
Inconclusive results are not listed. Activity calls are given as the source filed them. Rule for the calls: active = hit-call score of the fitted dose curve at least 0.9, where 1 is the maximum; inconclusive = response in the unintended direction; inactive = score below 0.9.
Answer with one of the outcomes given here: active, inactive

> print(dat)
                                   molecule  class.assignment
1                       c1ccc(Nc2ccccc2)cc1            active
2                       N#CSCSc1nc2ccccc2s1          inactive
3  CC(C)(C)[C@@H](O)[C@@H](Cc1ccc(Cl)cc1)n1cncn1          inactive
4                c1ccc2[nH]c(-c3cscn3)nc2c1          inactive

# input for lookup
Ask: What did this assay record as the result for `CCOC(=O)NCCOc1ccc(Oc2ccccc2)cc1` ?
Reply: inactive

* * *

assay: UKN2_HCS_IMR90_neural_migration: University of Konstanz (UKN) Leist Lab Neural Crest Cell Migration Assay in human induced IMR90 Pluripotent Stem Cells (UKN2) (AID 2284204); settings: actives raise or lower the signal
Activity calls are given as the source filed them. The calls were made as follows: active = hit-call score of the fitted dose curve at least 0.9, where 1 is the maximum; inactive = score below 0.9.
Answer with one of the outcomes given here: y = active, n = inactive

Example cases with answers are listed next.
> print(dat)
                        structure.as.smiles  class.assignment
1                         CCCN(CCC)C(=O)SCC                 n
2  Cc1nn(C)c(Oc2ccccc2)c1C=NOCc1ccc(C(=O)OC(C)(C)C)cc1                 y
3             S=C([S-])NCCNC(=S)[S-].[Mn+2]                 y

# input for lookup
Ask: What did this assay record as the result for `CCN(CC)C(=O)c1cccc(C)c1` ?
Reply: n

* * *

read-out: Matrix Metallopeptidase 1 (MMP1), MMP1 (gene 4312); experiment: BSK_BE3C_MMP1: BioMAP Diversity Plus: BE3C Assay for Matrix Metallopeptidase 1 (MMP1) Biomarker Activity (AID 2283024); conditions: primary human bronchial epithelial cells; actives raise or lower the signal
Calls of active or inactive are those of the source. Rule for the calls: active = hit-call score of the fitted dose curve at least 0.9, where 1 is the maximum; inactive = score below 0.9.
Answer with one of the outcomes given here: TRUE = active, FALSE = inactive

> print(dat)
             molecule  class.assignment
1  CCCOC(=O)NCCCN(C)C             FALSE

Ask: What did this assay record as the result for `COC(=O)c1c(Cl)nn(C)c1S(=O)(=O)NC(=O)Nc1nc(OC)cc(OC)n1` ?
Reply: FALSE

Ask: What did this assay record as the result for `CCSC(=O)N(CC(C)C)CC(C)C` ?
Reply: FALSE

Ask: What did this assay record as the result for `c1ccc2[nH]c(-c3cscn3)nc2c1` ?
Reply: FALSE

Ask: What did this assay record as the result for `COC(=O)c1ccccc1S(=O)(=O)NC(=O)Nc1nc(OC(F)F)cc(OC(F)F)n1` ?
Reply: FALSE

Ask: What did this assay record as the result for `COC(=O)c1ccc(CNS(C)(=O)=O)cc1S(=O)(=O)NC(=O)Nc1nc(OC)cc(OC)n1` ?
Reply: FALSE

Ask: What did this assay record as the result for C[C@]12CC[C@@H]3c4ccc(O)cc4C[C@@H](CCCCCCCCCS(=O)CCCC(F)(F)C(F)(F)F)[C@H]3[C@@H]1CC[C@@H]2O (some centres undefined) ?
Reply: TRUE

Ask: What did this assay record as the result for `c1ccc(Nc2ccccc2)cc1` ?
Reply: FALSE

Ask: What did this assay record as the result for CCCCC(CC)COC(=O)c1ccccc1C(=O)O (centres undefined) ?
Reply: FALSE

Ask: What did this assay record as the result for `O=C(Nc1ccc([N+](=O)[O-])cc1Cl)c1cc(Cl)ccc1O` ?
Reply: FALSE

* * *

read-out: xenobiotic metabolism (CYP1A2), CYP1A2 (gene 1544); test: CLD_CYP1A2_24hr: CellzDirect (CLD) Gene Expression Assay for xenobiotic metabolism (CYP1A2) at 24 hours (AID 2283683)
Inconclusive results are not listed. Calls of active or inactive are those of the source. How the source made its calls: active means hit-call score of the fitted dose curve at least 0.9, where 1 is the maximum; inconclusive means response in the unintended direction; inactive means score below 0.9.
Answer with one of the outcomes given here: yes (1) for active, no (0) for inactive

> print(dat)
                                   compound  class.assignment
1                        CCNc1nc(N)nc(Cl)n1            no (0)
2  CC1(C)C(C=C(Cl)Cl)C1C(=O)OCc1cccc(Oc2ccccc2)c1 (stereo unspecified)            no (0)
3            CCCCOCCOCCOCc1cc2c(cc1CCC)OCO2           yes (1)
4  S=C(S)NCCNC(=S)S.[Mn+2].[S-]C([S-])=NCCN=C([S-])[S-].[Zn+2]            no (0)
5             S=C([S-])NCCNC(=S)[S-].[Mn+2]            no (0)

Ask: What did this assay record as the result for `CC(C)(C)[C@@H](O)[C@@H](Cc1ccc(Cl)cc1)n1cncn1` ?
Reply: no (0)

* * *

read-out: UDP glucuronosyltransferase (UGT1A1), UGT1A1 (gene 54658); assay: LTEA_HepaRG_UGT1A1: Life Technologies and Expression Analysis (LTEA) Assay for UDP glucuronosyltransferase (UGT1A1) using HepaRG (AID 2283538); conditions: mRNA level, 48 h; actives raise or lower the signal
Calls of active or inactive are those of the source. How the source made its calls: active means hit-call score of the fitted dose curve at least 0.9, where 1 is the maximum; inactive means score below 0.9.
Answer with one of the outcomes given here: active, inactive

Example cases with answers are listed next.
> print(dat)
                                   compound  class.assignment
1  CCC(C)OC(=O)N1CCCCC1CCO (stereo not drawn)            active
2                   CCN(CC)C(=O)c1cccc(C)c1            active
3  CCOC(=O)COc1cc(-n2ncc(C(F)(F)F)c(C)c2=O)c(F)cc1Cl          inactive
4  C=CCOC(Cn1ccnc1)c1ccc(Cl)cc1Cl (stereo not drawn)            active
5  Cc1nn(C)c(Oc2ccccc2)c1C=NOCc1ccc(C(=O)OC(C)(C)C)cc1            active
6                      CSC(=O)c1cccc2nnsc12          inactive

Ask: What did this assay record as the result for `COCCO` ?
Reply: inactive

Ask: What did this assay record as the result for `O=C(c1ccc(O)cc1O)c1ccc(O)cc1O` ?
Reply: inactive

Ask: What did this assay record as the result for `N[C@@H](Cc1cc(I)c(Oc2ccc(O)c(I)c2)c(I)c1)C(=O)O` ?
Reply: active

Ask: What did this assay record as the result for CCCCCCC(C)OC(=O)COc1nc(F)c(Cl)c(N)c1Cl (stereo not drawn) ?
Reply: inactive

Ask: What did this assay record as the result for `OB(O)O` ?
Reply: inactive

Ask: What did this assay record as the result for CCOC(=O)C(C)Oc1ccc(Oc2nc3ccc(Cl)cc3o2)cc1 (stereo not drawn) ?
Reply: inactive

Ask: What did this assay record as the result for `CN(C)C(=O)Nc1ccc(Cl)c(Cl)c1` ?
Reply: active

* * *

read-out: Transforming growth factor beta 1 (TGFb1), TGFB1 (gene 7040); experiment: BSK_BE3C_TGFb1: BioMAP Diversity Plus: BE3C Assay for Transforming growth factor beta 1 (TGFb1) Biomarker Activity (AID 2283036); settings: primary human bronchial epithelial cells; actives raise or lower the signal
The source made the active and inactive calls. The calls were made as follows: active = hit-call score of the fitted dose curve at least 0.9, where 1 is the maximum; inactive = score below 0.9.
Answer with one of the outcomes given here: active, inactive

Example cases with answers are listed next.
> print(dat)
                                   molecule  class.assignment
1                       c1ccc(Nc2ccccc2)cc1            active
2  CCOC(=O)[C@H](C)Oc1ccc(Oc2nc3ccc(Cl)cc3o2)cc1          inactive
3               CN(C)C(=O)Nc1ccc(Cl)c(Cl)c1          inactive
4            CCCCOCCOCCOCc1cc2c(cc1CCC)OCO2          inactive
5  C#C[C@]1(O)CC[C@H]2[C@@H]3CCC4=CC(=O)CC[C@@H]4[C@H]3CC[C@@]21CC          inactive

Ask: What did this assay record as the result for CCOC(=O)C(C)Oc1ccc(Oc2nc3ccc(Cl)cc3o2)cc1 (stereo unspecified) ?
Reply: inactive

* * *

The compounds listed here are annotated with their AC50.
read-out: solute carrier (SLC22A1), SLC22A1 (gene 6580); test: LTEA_HepaRG_SLC22A1: Life Technologies and Expression Analysis (LTEA) Assay for solute carrier (SLC22A1) using HepaRG (AID 2283524); conditions: mRNA level, 48 h; actives raise or lower the signal;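 note: differentiated human HepaRG liver cells in serum-free induction medium; TaqMan qRT-PCR normalized to ACTB GAPDH and POLR2A housekeeping genes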
Activity calls are given as the source filed them. The calls were made as follows: active = hit-call score of the fitted dose curve at least 0.9, where 1 is the maximum; inactive = score below 0.9.

Worked examples, 4 compounds total:
> print(dat)
                        structure.as.smiles  outcome.measure  observed.measurement
1         O=C(O)C1(C(=O)Nc2ccc(Cl)cc2Cl)CC1             AC50      74.3 µM (active)
2  CCN(Cc1c(F)cccc1Cl)c1c([N+](=O)[O-])cc(C(F)(F)F)cc1[N+](=O)[O-]             AC50      29.6 µM (active)
3  CC(=O)S[C@@H]1CC2=CC(=O)CC[C@]2(C)[C@H]2CC[C@@]3(C)[C@@H](CC[C@@]34CCC(=O)O4)[C@H]12             AC50      55.5 µM (active)
4  O=C(Nc1ccc([N+](=O)[O-])cc1Cl)c1cc(Cl)ccc1O             AC50       5.5 µM (active)

Next, consider the following compound.
Ask: State the recorded AC50 for this entry: `Oc1ccc(C(c2ccc(O)cc2)C(Cl)(Cl)Cl)cc1`
Reply: 92.3 µM (active)
